tested_system: YTHDF1 (361-559) (Homo sapiens)
Construct: GST (N, cleaved yes)
Sequence (Q9BYJ9 with tags, fused parts or gaps): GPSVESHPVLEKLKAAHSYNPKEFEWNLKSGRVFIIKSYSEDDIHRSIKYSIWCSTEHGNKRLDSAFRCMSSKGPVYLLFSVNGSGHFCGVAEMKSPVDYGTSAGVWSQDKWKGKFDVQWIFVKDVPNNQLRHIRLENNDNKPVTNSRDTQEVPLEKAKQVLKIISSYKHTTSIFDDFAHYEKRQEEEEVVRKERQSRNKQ
procedure_summary: Fluorescence polarization (FP) assay, inhibition of m6A-containing mRNA binding to YTHDF1
particulars: read-out: IC50, inhibition of interaction between m6A-containing mRNA and YTHDF1
property_name: IC50 (nM)
Return type: number; implicit unit nM.

Q) Need IC50 of O=C(/C=C/c1ccc(O)c(O)c1/C=C/c1ccc(O)c(O)c1)O[C@H](Cc1ccc(O)c(O)c1)C(=O)O , thanks.
A) 2300

---

tested_system: His-YTHDF1 (361-559) (Homo sapiens, UniProt Q9BYJ9)
Construct: made in house; host or cells: E. coli BL21 (DE3)
procedure_summary: AlphaScreen competition assay against non-biotinylated m6A-containing mRNA
Format: binding
particulars: absence of non-biotinylated m6A-containing mRNA; 200 nM YTHDF1, 20 nM biotinylated mRNA; read-out: inhibitory activity against YTHDF1
property_name: pIC50
// pIC50 is dimensionless: -log10 of concentration (M)

Q) Need pIC50 of O=C(/C=C/c1ccc(O)c(O)c1/C=C/c1ccc(O)c(O)c1)O[C@H](Cc1ccc(O)c(O)c1)C(=O)O [SAA, Salvianolic Acid A] , thanks.
A) 6.10

---

tested_system: His-YTHDF1 (361-559) (Homo sapiens, UniProt Q9BYJ9)
Construct: made in house; host or cells: E. coli BL21 (DE3)
Sequence (Q9BYJ9 with tags, fused parts or gaps): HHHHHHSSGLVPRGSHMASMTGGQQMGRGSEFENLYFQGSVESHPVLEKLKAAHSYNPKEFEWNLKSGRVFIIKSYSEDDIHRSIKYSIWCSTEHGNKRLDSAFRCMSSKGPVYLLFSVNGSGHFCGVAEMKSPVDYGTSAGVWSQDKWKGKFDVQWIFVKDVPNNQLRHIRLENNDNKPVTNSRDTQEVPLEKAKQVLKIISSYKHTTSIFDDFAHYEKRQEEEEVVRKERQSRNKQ
procedure_summary: AlphaScreen-based assay, m6A-containing mRNA binding to YTHDF1
particulars: read-out: IC50, blocking binding between m6A and YTHDF1
property_name: IC50 (nM)
Return type: number; implicit unit nM.

Q) API: value(readout= IC50, system= His-YTHDF1 (361-559) (Homo sapiens, UniProt Q9BYJ9), query= O=C(/C=C/c1ccc(O)c(O)c1/C=C/c1ccc(O)c(O)c1)O[C@H](Cc1ccc(O)c(O)c1)C(=O)O )
A) 860

---

tested_system: YTHDF1 (361-559) (Homo sapiens)
Construct: GST (N, cleaved yes); made in house; host or cells: E. coli BL21 (DE3)
procedure_summary: SPR binding assay
property_name: pKd
// pKd is dimensionless: -log10 of concentration (M)

Q) Need pKd of O=C(/C=C/c1ccc(O)c(O)c1/C=C/c1ccc(O)c(O)c1)O[C@H](Cc1ccc(O)c(O)c1)C(=O)O [SAA, Salvianolic Acid A] , thanks.
A) 5.60

Data credit: patent US20240033244A1
